Measured apparent KD of MS2 coat protein, listed per entry for reference.
Test system: MS2 coat protein
Test: apparent KD of MS2 coat protein; designed switch direction (-1 OFF switch, 1 ON switch): 1; higher = weaker reporter binding
Conditions: input ligand: microRNA oligo, concentration not stated
The reply should contain only the number, in nM.

AGAUCAUGACGAGGAUAUCCGACAUGAGGAUCACCCAUGUAUGUCGGAGGACGAAUACGUCCAAAGGAGAAGGCGUCGUGGUCA [Mat - Same State NG 2 - JL mod - D38] (Eterna round: R96, puzzle: Same State NG 2)    62.9

Name the recorded apparent KD of MS2 coat protein for GCAGUGGCGGUAGGAUAUCUAGGAUAUGGGAAAGACUAAGUCUGUAGGUCACCUAACCCAGAAGGAGAGAAGGACCCUGUAAGG [pwkr ssNG2 2FMN + F9.21] (Eterna round: R96, puzzle: Same State NG 2) . 74.7

Name the recorded apparent KD of MS2 coat protein for GUGGUCAGACAUGAGGAUCACCCAUGUGGAAUAAAUAAGGGUCAGGAUAUCUAAUAUAGGAUAUAAGAGAAGGGAUGGUUGGUG (Eterna round: R96, puzzle: Same State NG 3) . 89.4

Name the recorded apparent KD of MS2 coat protein for UAAUUAAAGCAAGGAUAUCACGUCGUUUAGACGUGAGAAGGUGCUCCUUACAUGAGGAUCACCCAUGUAUAACAUGAAUAAUUA [SSNG1/10-B3] (Eterna round: R96, puzzle: Same State NG 1) . 517

Name the recorded apparent KD of MS2 coat protein for UGGUGUAACAUGAGGAUCACCCAUGUCACAACCCGGAUAGAGUAGGAUAUGGGCUGAUCACGCAUCCAGAAGGGCUCAUACUUU [Eternabot solution 19] (Eterna round: R96, puzzle: Same State NG 3) . 14.3

Entry source: the supplement of paper PMC9170038
